- Target Entity: T1, CRBN, Q96SW2;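 note: pooled lentiviral library of zinc finger degron-EGFP fusions in mCherry-positive Jurkat cells, FACS-sorted after compound exposure, with degron abundance counted by next-generation sequencing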
- T1 chain: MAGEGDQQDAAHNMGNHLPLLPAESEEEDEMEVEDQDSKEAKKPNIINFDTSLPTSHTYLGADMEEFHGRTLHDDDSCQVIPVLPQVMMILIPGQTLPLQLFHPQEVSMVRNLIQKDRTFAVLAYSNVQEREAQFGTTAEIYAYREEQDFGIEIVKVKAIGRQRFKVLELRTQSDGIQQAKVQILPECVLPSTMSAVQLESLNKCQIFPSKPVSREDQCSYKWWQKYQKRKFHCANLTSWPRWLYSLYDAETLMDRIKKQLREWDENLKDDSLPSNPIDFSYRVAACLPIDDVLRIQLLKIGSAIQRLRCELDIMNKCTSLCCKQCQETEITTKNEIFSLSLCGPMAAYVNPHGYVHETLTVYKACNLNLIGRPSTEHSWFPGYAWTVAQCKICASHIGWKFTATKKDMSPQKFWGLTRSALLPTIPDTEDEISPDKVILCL
- Assay Comment: log2 fold change of degron read counts, EGFP-low vs EGFP+ sorted cells (limma voom), compound-induced degradation; higher = more compound-induced degradation of the degron-EGFP fusion; degrons are variants of IKZF1/3 zinc finger 2; compound dose not given here
- Experimental Setup: Jurkat; 18 h; compound: thalidomide
The full ranking holds about 8,300 sequences; the median of “log2 fold change of degron read counts, EGFP-low vs EGFP+ sorted cells (limma voom), compound-induced degradation” is about -1.1, and the highest 2% start at about 3.2. Shown is part of a subset that was picked to be rich in the highest values.
label 1 means recorded log2 fold change of degron read counts is -0.8 or above; label 0 means it is below -0.8.

Residue Sequence	Category
FSCPVCGANFTQKGNLLRHIKL [46F_47S_49P_50V_52G_53A_54N_55F_67L_, Q9UKT9]	label 1
FACEICGRNFTQKGNLLRHIKL [46F_47A_49E_50I_52G_53R_54N_55F_67L_, Q9UKT9]	label 0
FTCPQCGAQFTQKGNLLRHIKL [46F_47T_49P_50Q_52G_53A_54Q_55F_67L_, Q9UKT9]	label 1
FNCSVCGHNFTQKGNLLRHIKL [46F_47N_49S_50V_52G_53H_54N_55F_67L_, Q9UKT9]	label 0
FLCEICGRRFTQKGNLLRHIKL [46F_47L_49E_50I_52G_53R_54R_55F_67L_, Q9UKT9]	label 1
FRCNQCGHRFTQKGNLLRHIKL [46F_47R_49N_50Q_52G_53H_54R_55F_67L_, Q9UKT9]	label 0

Reference source: the supplement of paper PMC12645437
